System: HIV-1
Assay: HIV-1 induced cytopathicity in MT-4 cells
Assay type: cell-based, human immunodeficiency virus type 1
Conditions: MT-4 cells; concentration inhibiting HIV-induced cytopathicity by 50%
Experimental: The activity of the compounds against HIV-1 and HIV-2 induced cytopathicity was examined in human lymphocyte MT-4 cells. […] The infected cell cultures were then incubated at 37° C. for 5 days in a humidified CO2-controlled incubator. Then, the cytopathicity of the virus was examined by determination of MT-4 cell viability by trypan blue dye staining.
assay-endpoint: EC50 HIV-1 (µg/mL)
Kindly answer with a numeric value in µg/mL, unit omitted.

>  <molecule>
C[C@@H](Cn1cnc2c(N)nc(N)nc21)OCP(=O)(O)O [(S)-PMPDAP]

>  <assay-endpoint>
EC50 HIV-1

>  <numeric-value>
2.0

$$$$
>  <molecule>
Nc1nc(N)c2ncn(C[C@@H](CF)OCP(=O)(O)O)c2n1 [(S)-FPMPDAP]

>  <assay-endpoint>
EC50 HIV-1

>  <numeric-value>
4.8

$$$$
>  <molecule>
C[C@H](Cn1cnc2c(N)nc(N)nc21)OCP(=O)(O)O [(R)-PMPDAP]

>  <assay-endpoint>
EC50 HIV-1

>  <numeric-value>
0.05

$$$$
>  <molecule>
C[C@@H](Cn1cnc2c(N)ncnc21)OCP(=O)(O)O [(S)-PMPA, 9-(S)-(2-Phosphonomethoxypropyl)adenine]

>  <assay-endpoint>
EC50 HIV-1

>  <numeric-value>
78

$$$$

Next molecule, please.
Data point: Nc1ncnc2c1ncn2C[C@@H](CF)OCP(=O)(O)O [(S)-FPMPA] ; EC50 HIV-1 = 2.7

* * *

System: MT-4 cells
Experiment: MT-4 cell viability (cytotoxicity)
Type: cell-based, human
Conditions: concentration reducing MT-4 cell viability by 50%
Experimental: The activity of the compounds against HIV-1 and HIV-2 induced cytopathicity was examined in human lymphocyte MT-4 cells. […]. The infected cell cultures were then incubated at 37° C. for 5 days in a humidified CO2-controlled incubator. Then, the cytopathicity of the virus was examined by determination of MT-4 cell viability by trypan blue dye staining. The results are summarized in Table 1 in comparison with the data on the prototype compounds.
assay-endpoint: CC50

>  <compound>
C[C@@H](Cn1cnc2c(=O)[nH]c(N)nc21)OCP(=O)(O)O [(S)-PMPG, 9-(S)-(2-Phosphonomethoxypropyl)guanine]

>  <target>
MT-4 cells

>  <CC50>
45 µg/mL

$$$$

Data point: Nc1nc(N)c2ncn(C[C@H](CF)OCP(=O)(O)O)c2n1 [(R)-FPMPDAP, reference compound] ; CC50 = >100 µg/mL

Data point: C[C@@H](Cn1cnc2c(N)ncnc21)OCP(=O)(O)O [(S)-PMPA, 9-(S)-(2-Phosphonomethoxypropyl)adenine] ; CC50 = >100 µg/mL

* * *

test system: MT-4 cells; assay: MT-4 cell viability (cytotoxicity); format: cell-based, human; settings: concentration reducing MT-4 cell viability by 50%
assay-endpoint: CC50

>  <molecule>
Nc1ncnc2c1ncn2C[C@@H](CF)OCP(=O)(O)O [(S)-FPMPA]

>  <CC50>
>100 µg/mL

$$$$
>  <molecule>
C[C@H](Cn1cnc2c(=O)[nH]c(N)nc21)OCP(=O)(O)O [(R)-PMPG]

>  <CC50>
>100 µg/mL

$$$$

Next molecule, please.
Data point: C[C@H](Cn1cnc2c(N)nc(N)nc21)OCP(=O)(O)O [(R)-PMPDAP] ; CC50 = >100 µg/mL
